# protocol-description: small-molecule microarray binders of probe aCHRDL2, primary screen, biochemical, biotinylated probe, 635/667 nm fluorescence (AID 1100)
# settings: higher = more signal
I'd be grateful if you could share measured composite z-score for these entries.
When you answer, write just the number.

Challenge: Quick one: composite z-score of CC(C)c1ccc(NN2C(C(O)C(C)c3ccccc3)C=CC3C(=O)N(c4ccccc4)C(=O)C32)cc1 (centres undefined) ?
Response given: 1.03

Challenge: Which value of composite z-score has been reported for CC[C@@H](O[Si](C#C[Si](C(C)C)(C(C)C)C(C)C)(C(C)C)C(C)C)c1cn([C@H](CO)Cc2ccccc2)nn1 in the records?
Response given: -0.592

Challenge: What measured composite z-score goes with [N-]=[N+]=NCc1ccccc1[C@H]1OC(c2ccc(OCCCO)cc2)=N[C@@]1(CCS(=O)(=O)c1ccccc1)C(=O)O ?
Response given: 0.906

Challenge: Entry C=CC[C@]1(C(=O)NCC(O)CO)N=C(c2ccc(OCCCO)cc2)O[C@H]1c1ccccc1CN=[N+]=[N-] (some centres undefined) : reported composite z-score = ?
Response given: 1.18
